For Voltage-gated inwardly rectifying potassium channel KCNH2 (Homo sapiens), measured log10 of IC50 is reported for the entries below.
READOUT_KIND: log10 of IC50 (log10 of the value in µM)

MOLECULE: CC(C)S(=O)(=O)N[C@H]1CN(C)CC1c1ccc(-c2ccsc2)cc1 (single isomer, unassigned)
READOUT_KIND: log10 of IC50
ASSAY_RESULT: 0.60
--
MOLECULE: CC(=O)Nc1cccc(-c2ccc(C3CN(C)C[C@@H]3NS(=O)(=O)C(C)C)cc2)c1 (single isomer, unassigned)
READOUT_KIND: log10 of IC50
ASSAY_RESULT: 1.10
--
MOLECULE: CCN1CC(c2ccc(-c3cccc(NS(C)(=O)=O)c3)cc2)[C@@H](NS(=O)(=O)C(C)C)C1 (single isomer, unassigned)
READOUT_KIND: log10 of IC50
ASSAY_RESULT: 0.40
--
MOLECULE: CC(C)S(=O)(=O)N[C@@H]1COCC1c1ccc(-c2ccc(F)nc2)cc1 (single isomer, unassigned)
READOUT_KIND: log10 of IC50
ASSAY_RESULT: 1.10
--
MOLECULE: CC(C)S(=O)(=O)N[C@H]1CN(C)CC1c1ccc(-c2cccnc2)cc1 (single isomer, unassigned)
READOUT_KIND: log10 of IC50
ASSAY_RESULT: 1.50
--
MOLECULE: CC(C)S(=O)(=O)N[C@H]1CN(C)CC1c1ccc(-c2ccc(F)nc2)cc1 (single isomer, unassigned)
READOUT_KIND: log10 of IC50
ASSAY_RESULT: 0.00
